- assay_system: HLA-B*51:01
- assay_method_text: IEDB peptide-MHC binding, purified MHC/competitive/fluorescence; filed as Kd, often an IC50 or EC50 that approximates it; bounds were set here for any values at or beyond the usual limits of such assays
- experimental_context: source organism: Vibrio parahaemolyticus K5030
quantity_measured: Kd

INSERT INTO results (sequence_code, quantity_measured, endpoint_value) VALUES
  ('WLGDVWQEK', 'Kd', '≥ 20 µM');

====

- assay_system: HLA-A*02:19
- assay_method_text: IEDB peptide-MHC binding, purified MHC/competitive/fluorescence; filed as Kd, often an IC50 or EC50 that approximates it; bounds were set here for any values at or beyond the usual limits of such assays
- experimental_context: source organism: Giardia lamblia ATCC 50803
quantity_measured: Kd (nM)

INSERT INTO measurements (sequence_code, quantity_measured, units_symbol, endpoint_value) VALUES
  ('ELLDHLLLF', 'Kd', 'nM', 980);
